# ASSAYED_TARGET: HLA-A*02:06
# MEASUREMENT_DESCRIPTION: IEDB peptide-MHC binding, purified MHC/competitive/fluorescence; filed as Kd, often an IC50 or EC50 that approximates it; bounds were set here for any values at or beyond the usual limits of such assays
# RUN_CONDITIONS: source organism: Vaccinia virus WR
Measured Kd of individual entries

- RECORD_SEQUENCE: "FVHTLLKTY"
  ASSAYED_TARGET: "HLA-A*02:06"
  Kd [µM]: 2.97
- RECORD_SEQUENCE: "LTFLHTLYK"
  ASSAYED_TARGET: "HLA-A*02:06"
  Kd [µM]: 1.09
